Recorded measurements of logP, one per entry
Form rule: numeric answer, no unit written next to it.

Example cases with answers are listed next.
CCCCNC(=S)N(CCCC)CCCC : 3.68
FC(F)(F)c1cccc(C(F)(F)F)c1 : 3.83
O=C1C=CC(=O)N1c1ccccc1 : 1.09
CC(C)C(C)OCc1cn(C)c(C=NO)n1 (stereo not drawn) : 2.53
[O-][n+]1ccccc1 : -1.2

input: For the compound N#CC1CC1 , give its measured logP value.
output: 0.29

input: Identify measured logP associated with Nc1nc(=O)cc[nH]1
output: -0.99

input: Supply logP value. Item: CC(C(=O)O)c1ccc(N2C(=O)C3CCCCC3C2=O)cc1 (stereo not drawn)
output: 2.37
